Source of measurements: ChEMBL document CHEMBL3286295

Experiment: Selectivity index, ratio of IC50 for human HepG2 cells to IC50 for exo-erythrocytic form of Plasmodium berghei
readout_kind: selectivity ratio
Lab note: write the figure by itself, no unit.

CC(C)(C)c1ccc(C(=O)NOCCCCCC(=O)NO)cc1 : 7
Cc1ccc(C(=O)NOCCCCCC(=O)NO)cc1 : 11
Cc1cc(C)cc(C(=O)NOCCCCCC(=O)NO)c1 : 8

# input Any idea what its selectivity ratio is? The compound is CC(C)c1ccc(C(=O)NOCCCCCC(=O)NO)cc1
# output 7

# input Any idea what its selectivity ratio is? The compound is O=C(CCCCCONC(=O)c1ccc(F)cc1)NO
# output 4

# input Any idea what its selectivity ratio is? The compound is CCCCc1ccc(C(=O)NOCCCCCC(=O)NO)cc1
# output 6

# input Any idea what its selectivity ratio is? The compound is CC(C)Oc1ccc(C(=O)NOCCCCCC(=O)NO)cc1
# output 7

# input Any idea what its selectivity ratio is? The compound is Cc1ccccc1C(=O)NOCCCCCC(=O)NO
# output 5

# input Any idea what its selectivity ratio is? The compound is O=C(CCCCCONC(=O)c1ccccc1F)NO
# output 7

# input Any idea what its selectivity ratio is? The compound is O=C(CCCCCONC(=O)c1ccc(C(F)(F)F)cc1)NO
# output 7

# input Any idea what its selectivity ratio is? The compound is CCOc1ccc(C(=O)NOCCCCCC(=O)NO)cc1
# output 6

# input Any idea what its selectivity ratio is? The compound is O=C(CCCCCONC(=O)c1ccco1)NO
# output 7

# input Any idea what its selectivity ratio is? The compound is Cc1cccc(C(=O)NOCCCCCC(=O)NO)c1
# output 7

# input Any idea what its selectivity ratio is? The compound is CCCOc1ccccc1C(=O)NOCCCCCC(=O)NO
# output 17
